Test system: TO-3-N3-2 (biotin conjugate)
assay.summary: pull-down binding Z-score (relative to library population); higher = stronger binding
test.context: RNA library: Library-2
Assignment: determine reported pull-down binding Z-score for the given sequences.
Form field (numeric): enter value without unit.

Enquiry: Could you tell me which pull-down binding Z-score is on file for CCUGCCUCAGAACUACUGAACAGAGUCACUGGGUGUGGA [hsa-mir-1289-2] ?
Return: -0.00545

Enquiry: Returns the measured pull-down binding Z-score for the input sequence. Input: ACCCUCAAAAAGAGAUGGCAACUAGCACUCUCCAAGGGU
Return: 0.0435

Enquiry: Requested field: pull-down binding Z-score. Item: CUCACAUGGAGUAAAAUAUGAU [hsa-mir-3134]
Return: 0.194

Enquiry: Please report the recorded pull-down binding Z-score for UUCAUUUUAUUUAUGAUGAG [hsa-mir-496] .
Return: -0.288

Enquiry: For the sequence shown here, AAGUCGAUUUCCAAAAGUGACUU [hsa-mir-3124] , give the reported pull-down binding Z-score.
Return: -0.588

Enquiry: Quick one: pull-down binding Z-score for GAUGGGAUUAGAAACCAUAUGUCUCAUC [hsa-mir-3617] ?
Return: -0.165

Enquiry: What pull-down binding Z-score value was documented for this sequence, UGUAUAUAGCAUAUGUGUAUACAUACACACACACACACACACACACACA [hsa-mir-8485] ?
Return: -0.16

Enquiry: Look up pull-down binding Z-score for this sequence: CAGGCGGGGCAGCCCAAUGCCAUGGGCCUGAU [hsa-mir-4695]
Return: 0.157

Enquiry: # pull-down binding Z-score lookup, item AAGCUCUUGCAGUAGGUUU [hsa-mir-1206]
Return: -0.358

Enquiry: State the recorded pull-down binding Z-score for this entry: GAGACACCCGCUACCUGGUGUU [hsa-mir-4321]
Return: -0.213

Enquiry: # input sequence: AAAAAUCUUAGGGAAUUUGUGUUUAAGAAUAUUGAUGGUUAUUUUAAAAUAUAUUCUAAGCACACGCCUAUUAAUUUAGUGCGUGAUCUCCCUCAGGGUUUUU ; wanted: its pull-down binding Z-score
Return: 0.151

* * *

Test system: TO-N3 (biotin conjugate)
assay.summary: pull-down binding Z-score (relative to library population); higher = stronger binding
test.context: RNA library: Library-2
recorded.endpoint: pull-down binding Z-score
Just the number, please, no unit attached.

Enquiry: Given the entry UACAUGUGUUGGUAGCGAUAAUGUUACUGACUUUAAUGCAAUUGCAACAUGUG [DMSMaPseq_invitro_SARS-CoV-2_Multi_49_ComplexLevel_1] , report its measured pull-down binding Z-score.
Return: -0.826

Enquiry: Data request, read-out pull-down binding Z-score, for UAGAUGCUGUAAAUUUACUUACUAAUAUGUUUACACCACUAAUUCAACCUAUUGGUGCUUUGGACAUAUCAGCAUCUA [DMSMaPseq_invitro_SARS-CoV-2_Multi_30_ComplexLevel_1]
Return: 0.0803

Enquiry: Entry under review: AUAAUAAGAGGCUGGAUUUUUGGUACUACUUUAGAUUCGAAGACCCAGUCCCUACUUAUUGU . Reported pull-down binding Z-score?
Return: -0.881

Enquiry: Looking for the measured pull-down binding Z-score of CUUGCUUUGAAACUAAAGAAGUAAG [hsa-mir-302a] , can you help?
Return: -0.193

Enquiry: Fill in the blank: the reported pull-down binding Z-score of GUGAUAGGAUUUAUCAC [hsa-mir-4999] is ____.
Return: -0.436

Enquiry: Field request: pull-down binding Z-score | item: GCAGGAGCCUUAAAUAAGGCUACUAACAAUGC
Return: 0.0366

Enquiry: Which pull-down binding Z-score value is on record for CAGGAGUGGACACCUG [hsa-mir-1246] ?
Return: -0.198

Enquiry: Which measured pull-down binding Z-score value corresponds to GAGACACUC [hsa-mir-6126] ?
Return: -0.502

Enquiry: Item under review: AGGUCUCCUGGCAU [hsa-mir-4256] . Reported pull-down binding Z-score?
Return: -0.164

* * *

System: TO-3-N3-2 (biotin conjugate)
assay.summary: pull-down binding Z-score (relative to library population); higher = stronger binding
test.context: RNA library: Library-2
Classification field: YES = pull-down binding Z-score at or over -0.3; NO = pull-down binding Z-score under -0.3.

Enquiry: Is it the case that CAGAGCUGCAGCUGCUCCACCCUG [hsa-mir-6730] has pull-down binding Z-score reaching or exceeding -0.3?
Return: YES

Enquiry: Does GAAUGCGUCAUCAUCUGAAGCAUUU have a reported pull-down binding Z-score of at least -0.3?
Return: NO

Enquiry: Hello, I need to know if GUUGACUGUUGAAUCUCAUGGCAAC [hsa-mir-21] has measured pull-down binding Z-score not below -0.3. Thanks!
Return: YES

Enquiry: Say whether UCAGGUGAAUGUGUCUGG [hsa-mir-3916] shows pull-down binding Z-score of -0.3 or more.
Return: NO

Enquiry: hey, is pull-down binding Z-score for this one >= -0.3? UAUGUCUGAAGCAAAAUGUUGGACUGAGACUGACCUUACUAAAGGACCUCAUGAAUUUUGCUCUCAACAUA
Return: NO

Enquiry: Answer whether pull-down binding Z-score of UAAGUUGUGAUCAUACCA [hsa-mir-1273g] is greater than or equal to -0.3.
Return: YES

Enquiry: Confirm if pull-down binding Z-score reported for the sequence UGCUCAGUGGAGUUAUUUUGAGCA [hsa-mir-4495] is -0.3 or above.
Return: NO

Enquiry: Form field: pull-down binding Z-score at least -0.3? Entry: ACCUUUAAUUGAAUUGUGCGUGGAUGAGGCUGGUUCUAAAUCACCCAUUCAGUACAUCGAUAUCGGU [SHAPE_invivo_SARS-CoV-2_Motif_532]
Return: NO

Enquiry: Determine whether this sequence has pull-down binding Z-score no lower than -0.3: CGGUACCCACUGCUGAGGGUGGGGACCA [hsa-mir-3691]
Return: YES

Enquiry: Kindly determine if pull-down binding Z-score recorded for UCGGCACUAUUGUGACUGU [hsa-mir-7855] is above or exactly -0.3.
Return: YES

Enquiry: Assess whether reported pull-down binding Z-score for CUCUCUGUUGCUCUGAAGGAG [hsa-mir-346] sits at -0.3 or higher.
Return: NO

Enquiry: Form field: pull-down binding Z-score at least -0.3? Entry: UGGCUGCUUGGGUCAAGUCAGCAGCCA [hsa-mir-449b]
Return: NO

Enquiry: Hi team, for UAGUGUUACCACAGAAAUUCUACCAGUGUCUAUGACCAAGACAUCAGUAGAUUGUACAAUGUACAUUUGUGGUGAUUCAACUG [DMSMaPseq_invitro_SARS-CoV-2_Multi_72_ComplexLevel_1] , is the recorded pull-down binding Z-score at or above -0.3?
Return: YES

Enquiry: Reported pull-down binding Z-score reaches at least -0.3 for CCUUUAGUACCUUUCUGGAUAACAAUUGCUUAUAUCAUUUGUAUUUCCACAAAGCAUUUCUAUUGG ?
Return: NO

Enquiry: Form field: pull-down binding Z-score at least -0.3? Entry: CACCAUCUGGUG [DMSMaPseq_invitro_SARS-CoV-2_Motif_188]
Return: YES

Enquiry: Check the entry GGUGUCGAACUCAUGGCUGCCACC [hsa-mir-6782] : does pull-down binding Z-score equal or exceed -0.3?
Return: YES

Enquiry: Answer whether pull-down binding Z-score of AGGCUUGGCACUUGAGGGAAAGCCU [hsa-mir-8059] is greater than or equal to -0.3.
Return: YES

Enquiry: For this sequence, is measured pull-down binding Z-score -0.3 or higher? AAGCUGACAGACAGCUG [hsa-mir-5691]
Return: NO

Enquiry: Assess whether reported pull-down binding Z-score for UGCGUUAGGAUUUCUGUAUCAUCCUCCUAACGCA [hsa-mir-3166] sits at -0.3 or higher.
Return: YES

Enquiry: Evaluate GUGCGUAUAAAGAUUGUACAAAUGUUAAGUGACACACUUAAAAAUCUCUCUGACAGAGUCGUAUUUGUCUUAUGGGCAC [DMSMaPseq_invitro_SARS-CoV-2_Multi_54_ComplexLevel_1] : pull-down binding Z-score at minimum -0.3?
Return: YES

Enquiry: pull-down binding Z-score >= -0.3 for CUGCUGCCGAUUCUGCACCAG [hsa-mir-4756] ?
Return: NO

Enquiry: Does GGUGGUUGUGGGAGUCACU [hsa-mir-4418] have a reported pull-down binding Z-score of at least -0.3?
Return: YES

Enquiry: Item CCCAUAUAAUAUUAGGGG [hsa-mir-4483] with pull-down binding Z-score of -0.3 or above?
Return: YES

Enquiry: Answer whether pull-down binding Z-score of UCUUCCCAGAAUUGGGAAAA [hsa-mir-320c-2] is greater than or equal to -0.3.
Return: NO

Enquiry: Hi team, for CCCAGUGCGGGG [IAV_invivo_NP_5_Motif_5+IAV_invivo_NP_5_Motif_5] , is the recorded pull-down binding Z-score at or above -0.3?
Return: NO

Enquiry: Entry UUUUUUUCCAAUGAAAAUAACGAAACCUGUUAUUUCCCAUUGAGGGGGAAAAA [hsa-mir-4484] : is its pull-down binding Z-score no less than -0.3?
Return: YES

Enquiry: Exam item: decide whether the reported pull-down binding Z-score for GGAGGCCCCGCCCUGCUGCCGACCCUGUGGAGCGGAGGGUGAAGCCUCC [hsa-mir-3180-5] is at least -0.3.
Return: YES

Enquiry: Is the recorded value of pull-down binding Z-score equal to or greater than -0.3 for this sequence? CGCGCCCGGCCUAACUUUUAAGAAACGUCGGCCCGGGAGCG [hsa-mir-5095]
Return: YES

Enquiry: Please indicate if the recorded pull-down binding Z-score for ACACUAAUUCUUUCACACGUGGUGU [DMSMaPseq_invitro_SARS-CoV-2_Motif_381] meets or exceeds -0.3.
Return: YES

Enquiry: Please check the record CAGACGGCUUUCUCUCCGAAUGUCUG [hsa-mir-2276] and state if its pull-down binding Z-score is at or above -0.3.
Return: NO

Enquiry: Can AUGGCAUUUAAGGAUUGCUAU [hsa-mir-4477a] be said to have pull-down binding Z-score at or above -0.3?
Return: NO

Enquiry: Could you verify whether the entry GGGAGAUUAAUGGUCCU [IAV_invivo_PB2_1_Motif_25+IAV_invivo_PB2_1_Motif_25] shows pull-down binding Z-score of no less than -0.3?
Return: YES

Enquiry: Threshold query (pull-down binding Z-score >= -0.3) on GAGGUGAGCAGGAUACUUACCUG [U1snRNP5ss-16]
Return: YES

Enquiry: hey, is pull-down binding Z-score for this one >= -0.3? UUUGCCAUUGAAAGUAAUGGCAAA [hsa-mir-548d-2]
Return: NO

Enquiry: Hello, I need to know if GAUGGUCAAGUAGACUUAUUUAGAAAUGCCCGUAAUGGUGUUCUUAUUACAGAAGGUAGUGUUAAAGGUUUACAACCAUC has measured pull-down binding Z-score not below -0.3. Thanks!
Return: YES

Enquiry: Decide: pull-down binding Z-score of CUCAAUGUAGUCUUGUAAGGAACAGGUUGAAG [hsa-mir-595] >= -0.3?
Return: YES

Enquiry: Check if pull-down binding Z-score >= -0.3 (inclusive). Item: CAGUUGAAACAUCAAAUUCGUUUGAUGUACUG
Return: NO

Enquiry: Evaluate CAGUCAGUAAAUAUUUUUUUGUGAAUG [hsa-mir-511] : pull-down binding Z-score at minimum -0.3?
Return: YES

Enquiry: Confirm if pull-down binding Z-score reported for the sequence CCAAAUUUCAUGCG [hsa-mir-4454] is -0.3 or above.
Return: YES
